test system: HOP-62 NSCLC; test: NCI-60 one-dose screen, 48 h; settings: 10 µM unless noted
The panel holds about 83,000 compounds, 20% with a hit somewhere; the sample as a whole holds those more often. Activity calls are given as the source filed them. Rule for the calls: active = growth percent below 10; inactive = the rest.
In this exercise, the only acceptable responses are true (1) (active), false (0) (inactive)

Dear colleague, could you share the recorded outcome for COc1cc2c(cc1-c1c(C)noc1C)ncc1nc(C3CCCCC3)n([C@@H](C)COC(F)F)c12 when you have a moment?
false (0)

Dear colleague, could you share the recorded outcome for c1csc(-c2nc(-c3cc4ccccc4c(N4CCOCC4)n3)cs2)c1 when you have a moment?
false (0)

Dear colleague, could you share the recorded outcome for CCCCCCCCNc1cccc2c1C(=O)c1ccccc1C2=O when you have a moment?
false (0)

Dear colleague, could you share the recorded outcome for Cc1ccnc2c(OCc3ccccc3)cccc12 when you have a moment?
false (0)

Dear colleague, could you share the recorded outcome for CC(C)C[C@@H](NC(=O)[C@@H](Cc1ccccc1)NC(=O)c1cnccn1)B1O[C@H]2[C@H](O)[C@@H](C(=O)NCCCC[C@@H]3NC(=O)[C@@H](Cc4ccccc4)NC(=O)[C@H](CC(=O)O)NC(=O)CNC(=O)[C@H](CCCN=C(N)N)NC3=O)O[C@@H](CN)[C@H]2O1 when you have a moment?
true (1)

Dear colleague, could you share the recorded outcome for COc1cc2c(cc1OC)C(=O)/C(=C/c1cc(-c3ccc4c(c3)OCO4)n[nH]1)C2 when you have a moment?
true (1)

Dear colleague, could you share the recorded outcome for CCN1CCN(C(=O)[C@]23CC[C@@H](C)[C@H](C)[C@H]2C2=CC[C@@H]4[C@@]5(C)C/C(=C/c6cccc(OC)c6OC)C(=O)C(C)(C)[C@@H]5CC[C@@]4(C)[C@]2(C)CC3)CC1 when you have a moment?
false (0)

Dear colleague, could you share the recorded outcome for C[C@H]1OC(=O)/C=C/[C@@H](O)[C@@H](O)CCCCCCCC[C@@H]1O when you have a moment?
false (0)

Dear colleague, could you share the recorded outcome for COc1cccc(-c2nn(-c3ccccc3)cc2-c2ccnc(NCCCNS(=O)(=O)c3cccc(F)c3)c2)c1 when you have a moment?
false (0)

Dear colleague, could you share the recorded outcome for NC1=NN=C2N(N)C(=O)c3cnn(-c4ccccc4)c3N2c2nc(-c3ccccc3)cc(-c3ccccc3)c21 when you have a moment?
false (0)

Dear colleague, could you share the recorded outcome for COc1ccc2[nH]cc(-c3nc(-c4c[nH]c5ncccc45)cs3)c2c1 when you have a moment?
false (0)

Dear colleague, could you share the recorded outcome for COc1ccc(-c2c(-c3nc4ccc(N5CCOCC5)cc4[nH]3)[nH]c(C)c2C(C)=O)cc1 when you have a moment?
false (0)

Dear colleague, could you share the recorded outcome for N=C(N)c1ccc(S(N)(=O)=O)cc1 when you have a moment?
false (0)

Dear colleague, could you share the recorded outcome for CC(C)(C)n1cc(-c2ccnc(NCCCNS(=O)(=O)c3ccc(Cl)cc3)c2)c(-c2cccc(F)c2)n1 when you have a moment?
false (0)

Dear colleague, could you share the recorded outcome for COc1ccc(C(=O)/C=C/c2cc(-c3cc(OC)c(OC)c(OC)c3)n[nH]2)cc1OC when you have a moment?
true (1)

Dear colleague, could you share the recorded outcome for COc1ccc2c(c1)c(-c1nc(-c3c[nH]c4ncccc34)cs1)cn2CCNC(=O)OC(C)(C)C when you have a moment?
false (0)

Dear colleague, could you share the recorded outcome for COc1ccc(-c2cc(=O)oc3ccc(Cl)cc23)cc1F when you have a moment?
false (0)

Dear colleague, could you share the recorded outcome for N#CC1c2ccccc2-c2ccccc2N1C(=O)c1ccccc1 (stereo not drawn) when you have a moment?
false (0)
